- System: RPMI-8226 leukemia
- measurementProtocol: NCI-60 one-dose screen, 48 h
- testSettings: 10 µM unless noted
The panel holds about 83,000 compounds, 20% with a hit somewhere; the sample as a whole holds those more often. Active and inactive are the calls of the source. Rule for the calls: active = growth percent below 10; inactive = the rest.
Please state which outcome applies, choosing from T (active), F (inactive)

IN: Look up the recorded call for `COc1cc(-c2cc(-c3cccc(OCC(=O)O)c3)[nH]c(=O)c2C#N)cc(OC)c1OC` in this test.
OUT: F

IN: CCOC(=O)C1=C(N)N(c2ccccc2)C2=C(C(=O)CC(C)(C)C2)C1c1ccccc1Cl (centres undefined) ?
OUT: F

IN: `CN1CCc2c(sc3ncnc(N/N=C/c4ccc(Cl)cc4Cl)c23)C1` ?
OUT: T

IN: COc1c(F)ccc(C(=O)Nc2ccc3nc(NC(=O)C4CCCN(S(=O)(=O)c5ccc(Br)c(F)c5)C4)sc3c2)c1F (centres undefined) ?
OUT: F

IN: `NS(=O)(=O)c1ccc(NNC(=O)CCC(=O)c2ccccc2)cc1` ?
OUT: F

IN: `Nc1nc(C(F)(F)F)cs1` ?
OUT: F

IN: `C#CCOc1ccc(/C=N/Nc2nc(-c3ccc(Cl)cc3)cs2)cc1OC` ?
OUT: F

IN: C=C1CC[C@@H]2[C@]3(C)COC(c4cn[nH]c4-c4ccc(F)cc4)O[C@@H]3CC[C@@]2(C)[C@@H]1C/C=C1/C(=O)OCC1O (some centres undefined) ?
OUT: T

IN: `CCCSc1nc(NCCc2c[nH]c3ccccc23)c(C#N)c(-c2ccc(F)cc2)n1` ?
OUT: F
